Recorded values, source paper PMC10066365.

# targetDesc: rat VAChT (Rattus norvegicus, UniProt Q62666)
# Construct: expressed in transfected cells; host or cells: rat PC12 (PC12 A123.7) cells, stably transfected; shared by Dr. Ali Roghani (Texas Tech University)
# Sequence (Q62666 whole entry): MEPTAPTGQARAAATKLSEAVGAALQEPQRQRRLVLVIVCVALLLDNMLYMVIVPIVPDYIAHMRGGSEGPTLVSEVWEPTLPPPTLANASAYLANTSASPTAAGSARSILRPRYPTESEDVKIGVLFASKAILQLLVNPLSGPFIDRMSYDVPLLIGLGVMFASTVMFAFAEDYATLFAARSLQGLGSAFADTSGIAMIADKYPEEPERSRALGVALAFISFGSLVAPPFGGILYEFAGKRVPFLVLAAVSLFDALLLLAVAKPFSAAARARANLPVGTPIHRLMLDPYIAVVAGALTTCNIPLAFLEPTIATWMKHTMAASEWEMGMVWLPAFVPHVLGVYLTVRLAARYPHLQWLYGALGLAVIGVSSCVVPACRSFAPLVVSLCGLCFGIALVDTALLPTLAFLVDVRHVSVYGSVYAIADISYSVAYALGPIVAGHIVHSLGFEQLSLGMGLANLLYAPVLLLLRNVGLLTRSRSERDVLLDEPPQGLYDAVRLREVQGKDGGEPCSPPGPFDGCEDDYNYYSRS
# test: [3H]Vesamicol competitive radioligand binding, PC12 cells expressing ratVAChT
# conditionSet: [3H]Vesamicol binding, rat VAChT (PC12); mean of 2-3 experiments; read-out: mean Ki
Note to self: use condition met only for Ki readings below 2000 nM; a reading exactly at 2000 nM still gets condition not met.

Q) Lab note: Ki threshold 2000 nM. Does this compound come in strictly under it? Clc1ccc(N2CCN(CC3CC4C=CC3C4)CC2)cc1 (centres unmarked)
A) condition met

Q) Can you check Cc1ccc(N2CCN(CC3CC4C=CC3C4)CC2)cc1 (centres unmarked) next?
A) condition met

Q) Also, c1ccc(N2CCN(CC3CCCC3)CC2)cc1 please.
A) condition not met

Q) Next up: FC(F)(F)c1cccc(N2CCN(CC3CCCC3)CC2)c1
A) condition not met

Q) Same question, Cc1ccc(N2CCN(C3CCC(C)C3)CC2)cc1 (centres unmarked) this time
A) condition met

Q) Could you do the same for CC1CCC(N2CCN(c3ccc(F)cc3)CC2)CC1 (centres unmarked) , please?
A) condition met

Q) Next up: c1ccc(N2CCN(C3CCCCCC3)CC2)cc1
A) condition met

---

# Tested on: Pristionchus pacificus
# test: Pristionchus pacificus motor disruption dose-response on solid media, 1 h
# conditionSet: conc 3.75; count of 20 animals per trial, one hour
recordedMetric: rep 2 atypical locomotion

Q) # query: rep 2 atypical locomotion | item c1ccc(N2CCN(C3CCCCCCC3)CC2)cc1 | system: Pristionchus pacificus
A) 0

Q) // next record c1cc(N2CCN(CC3CCC3)CC2)ccn1
A) 0

Q) What do you get for FC(F)(F)c1cccc(N2CCN(CC3CCCCC3)CC2)c1 ?
A) 0

---

# System: Dirofilaria immitis microfilariae
# test: Dirofilaria immitis microfilariae immobility assay (DiroImager, 72 h)
# conditionSet: Dirofilaria immitis, 72 h, read-out: Dirofilaria immitis filariae EC50
recordedMetric: EC50 (µM)
Give the quantity in µM, number only.

Q) Reported EC50 for O=[N+]([O-])c1ccc(N2CCN(C3CCCCC3)CC2)cc1 : what is it?
A) 11

Q) CC1CCC(N2CCN(c3ccc([N+](=O)[O-])cc3)CC2)CC1 (stereo not drawn) , same question.
A) 4.5

Q) Then this compound: O=[N+]([O-])c1ccc(N2CCN(CC3CCCCC3)CC2)cc1
A) 2.2

Q) Next compound: O=[N+]([O-])c1ccc(N2CCN(C3CCCCCC3)CC2)cc1
A) 10.7

Q) Same again, this time with O=[N+]([O-])c1ccc(N2CCN(CC3CC=CCC3)CC2)cc1 (stereo not drawn)
A) 5.2

Q) Also check Cc1cc(N2CCN(CC3CCCCC3)CC2)ccc1[N+](=O)[O-]
A) 5.11

Q) And then O=[N+]([O-])c1ccc(N2CCN(CC3CC4C=CC3C4)CC2)cc1 (stereo not drawn) , what is it?
A) 9.1

Q) O=[N+]([O-])c1ccc(N2CCN(C3CCCC3)CC2)cc1 , same question.
A) 11

Q) Further, for Cc1cccc(CN2CCN(c3ccc([N+](=O)[O-])cc3)CC2)c1 ?
A) 10.7
